Provenance of the data: patent US20250326748A1

# Tested on: SMN2 mRNA
# test-name: Splicing RT-qPCR panel, SMN2 canonical junction (CJ) mRNA
# Assay type: cell-based, human
# test-settings: Homo sapiens, read-out: SMN2 CJ (decrease in CJ mRNA levels, IC50)
Structures can show the parent of a compound that is named as a salt.
This section presents compounds with their documented IC50 values.

Reference set (3 entries):
{"columns": ["compound", "assay-system", "IC50"],
 "data": [
  ["Cc1c(O)c(-c2cc(Cl)c3cc(N4CCC(N(C)C)C4)cnc3n2)cc2cn(C)nc12 (stereo not drawn)", "SMN2 mRNA", "< 100 nM"],
  ["CN[C@@H]1CN(c2cnc3nc(-c4cc5cn(C)nc5c(C)c4O)ccc3c2)C[C@H]1C", "SMN2 mRNA", "< 100 nM"],
  ["COc1nc(-c2cc3cn(C)nc3c(C)c2O)nc2ncc(N3C[C@@H](C)N[C@@H](C)C3)cc12", "SMN2 mRNA", "< 100 nM"]
]}

Sample Cc1cn2cc(-c3ccc4cc(N5C[C@@H](C)N[C@@H](C)C5)cnc4n3)cc(F)c2n1 ; IC50 observed: 100 to 1000 nM

Sample Cn1cc2cc(-c3ccc4cc(N5CCC(NC(C)(C)C)C5)cnc4n3)c(O)cc2n1 (stereo not drawn) [Compound 134, hydrochloride] ; IC50 observed: < 100 nM

Sample C[C@H]1CN(c2cnc3nc(-c4cc5cn(C)nc5c(F)c4O)cc(Cl)c3c2)C[C@H](C)N1 ; IC50 observed: < 100 nM

====

This section presents compounds with their documented IC50 values.
# System: MYB mRNA
# test-name: Splicing RT-qPCR assay, MYB canonical (CJ) and alternative (AJ) junction mRNA
# Assay type: cell-based, human
# test-settings: Homo sapiens, canonical junction mRNA, qPCR panel; read-out: MYB CJ (decrease in CJ mRNA levels, IC50)
Where a name gives a salt, the structure may show the parent alone.

Reference set (8 entries):
{"columns": ["compound", "IC50"],
 "data": [
  ["Cn1cc2cc(-c3cc(Cl)c4cc(N5CC[C@@H](NCCF)C5)cnc4n3)c(O)cc2n1 [Compound 387, hydrochloride]", "< 100 nM"],
  ["Cn1cc2cc(-c3cc(Cl)c4cc(N5CCN6CCCC6C5)cnc4n3)cc(F)c2n1 (stereo not drawn) [Compound 216, trifluoroacetic acid]", "100 to 1000 nM"],
  ["Cc1c(O)c(-c2cc(Cl)c3cc(N(C)[C@@H]4CCNC4)cnc3n2)cc2cn(C)nc12.Cl [Compound 293]", "100 to 1000 nM"],
  ["C[C@H]1CN(c2cnc3nc(-c4cc5cn(C)nc5c(F)c4O)cc(Cl)c3c2)C[C@H](C)N1 [Compound 280]", "< 100 nM"],
  ["Cc1c(O)c(-c2cc(C3CC3)c3cc(N4C[C@@H](C)N[C@@H](C)C4)cnc3n2)cc2cn(C)nc12 [Compound 374]", "100 to 1000 nM"],
  ["CN[C@@H]1CCN(c2cnc3nc(-c4cc5cn(C)nc5c(C)c4O)ccc3c2)C1 [Compound 112]", "< 100 nM"],
  ["C[C@@H]1CN(c2cnc3nc(-c4cc5cn(C)nc5c(F)c4O)cc(Cl)c3c2)C[C@H](C)N1 [Compound 279]", "< 100 nM"],
  ["Cc1cn2cc(-c3cc(Cl)c4cc(N5C[C@@H](C)NC6(CC6)C5)cnc4n3)cc(F)c2n1 [Compound 402]", "100 to 1000 nM"]
]}

Item CN[C@@H]1CN(c2cnc3nc(-c4cc5cn(C)nc5c(C)c4O)ccc3c2)C[C@@H]1C [Compound 128] was tested on MYB mRNA; the reported IC50 is < 100 nM

Item CN(c1cnc2nc(-c3cc4cn(C)nc4c(F)c3O)cc(Cl)c2c1)[C@@H]1CCNC1 [Compound 276] was tested on MYB mRNA; the reported IC50 is < 100 nM

Item CN(c1cnc2nc(-c3cc4cn(C)nc4c(F)c3O)cc(Cl)c2c1)[C@H]1CCNC1 [Compound 275] was tested on MYB mRNA; the reported IC50 is < 100 nM

Item Cc1c(O)c(-c2ncc3cc(N4CC[C@@H](N)C4)cnc3n2)cc2cn(C)nc12 [Compound 159, 2,2,2-trifluoroacetate] was tested on MYB mRNA; the reported IC50 is < 100 nM

Item Cc1c(O)c(-c2ccc3cc(N4CCNCC4)cnc3n2)cc2cn(C)nc12 [Compound 137] was tested on MYB mRNA; the reported IC50 is < 100 nM

Item C[C@@H]1CN(c2cnc3nc(-c4cc5cn(C)nc5cc4O)ccc3c2)C[C@H](C)N1 [Compound 343] was tested on MYB mRNA; the reported IC50 is 100 to 1000 nM

Item C[C@@H]1CN(c2cnc3nc(-c4cc(F)c5nn(C)cc5c4)cc(Cl)c3c2)CC2(CC2)N1 [Compound 397] was tested on MYB mRNA; the reported IC50 is 100 to 1000 nM
